measured_target: Protein tyrosine phosphatase 1B (human recombinant) (Homo sapiens, UniProt P18031)
Sequence (P18031 1-435): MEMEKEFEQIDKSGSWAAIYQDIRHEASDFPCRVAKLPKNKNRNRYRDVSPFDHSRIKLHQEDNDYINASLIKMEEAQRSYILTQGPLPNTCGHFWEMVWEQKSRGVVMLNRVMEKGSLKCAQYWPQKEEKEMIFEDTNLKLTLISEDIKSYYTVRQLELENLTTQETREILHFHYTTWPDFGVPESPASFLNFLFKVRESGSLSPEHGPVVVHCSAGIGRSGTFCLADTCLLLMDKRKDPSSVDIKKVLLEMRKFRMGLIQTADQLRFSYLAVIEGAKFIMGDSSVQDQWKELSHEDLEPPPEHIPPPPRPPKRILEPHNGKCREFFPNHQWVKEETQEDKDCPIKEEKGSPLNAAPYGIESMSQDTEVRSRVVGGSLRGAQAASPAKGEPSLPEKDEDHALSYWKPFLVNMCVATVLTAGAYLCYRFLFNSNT
experiment: Protein tyrosine phosphatase 1B inhibition assay (p-NPP substrate)
measurement_setup: means ± SD of three replicates; read-out: PTP1B IC50
pIC50: −log10 of the molar value.
reported_metric: pIC50

A: CC(=CCOc1ccc(C=CCO)cc1)CO
B: CCCCCCCc1cc(=O)c2ccccc2n1C
Query: Lower value for measured pIC50? Options: A , B Your choice should be expressed through its label.
Response: A
